- ASSAY SUMMARY: NCI Yeast Anticancer Drug Screen. Data for the rad50 strain (AID 155)
- ASSAY CONTEXT: S. cerevisiae rad50 strain growth inhibition; at 50.0 µM
About 79,000 compounds went through this panel and 15% of them were active in at least one assay; those are over-represented in the sample as a whole. Active and inactive are the calls of the source. No stated cut-off is given here; in the data, active means growth inhibition above about 70%; inactive means the rest.
The categories you may choose from are active, inactive

Record excerpt, results attached:
{"columns": ["COMPOUND", "LABEL VALUE"],
 "data": [
  ["NC(CCl)=NC1CN2CCC1CC2 (stereo not given)", "inactive"],
  ["COc1ccc2c3c([nH]c2c1)C(C)N(C)CC3 (stereo not given)", "inactive"]
]}

Query :: Tell me the recorded outcome of this test for [C-]#[O+].[C-]#[O+].[C-]#[O+].[C-]#[O+].[Cr].c1ccc([PH+](CC[PH+](c2ccccc2)c2ccccc2)CC[PH+](c2ccccc2)c2ccccc2)cc1 .
Result :: inactive

Query :: Next up: Br[CH](Br)[Hg][c]1ccccc1
Result :: active

Query :: Next up: CC(C)CC(NC=O)C(=O)NC(Cc1ccccc1)NC(=O)CNC(=O)C(C)NC(=O)C(N)Cc1ccc(O)cc1 (stereo not given)
Result :: inactive

Query :: Next up: CCN1CC2(CO)CCC(OC)C34C5CC6C(OC)CC(O)(C5C6OC)C(O)(C(OC)C23)C14 (stereo not given)
Result :: inactive

Query :: Next up: CCn1nnnc1N
Result :: inactive

Query :: Next up: COc1cc(/C=C\[N+](=O)[O-])ccc1O
Result :: active

Query :: Next up: O=C(O)CNC(=O)c1ccc([As](=O)(O)O)cc1
Result :: inactive
